The reported measurements were obtained from PubChem BioAssay AID1963852.

Recorded measurements of pIC50, one per entry
# Test system: 282377-053-R-J1-PDC complex spheroid viability;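 also: spheroids exposed to compounds for seven days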
# procedure.text: Anticancer human tumor 282377-053-R-J1-PDC patient-derived colon adenocarcinoma cell line growth inhibition [POLQ]
# assay.context: curve of first compound; second compound 0.1 µM
pIC50: −log10 of the molar value.

molecule	pIC50
C=CCn1c(=O)c2cnc(Nc3ccc(N4CCN(C)CC4)cc3)nc2n1-c1cccc(C(C)(C)O)n1 + COC1C(OC(N)=O)C(O)C(Oc2ccc3c(O)c(NC(=O)c4ccc(O)c(CC=C(C)C)c4)c(=O)oc3c2C)OC1(C)C	< 6.00
COc1ccc([C@@H](O)c2cc(-c3ncnc4cc(N5CCOCC5)ccc34)c(F)cc2Cl)nn1 + Nc1ccc(C#CCN(C(=O)Cc2ncc(C(F)(F)F)cc2C(F)(F)F)c2ccc(F)cc2)nn1	< 5.00
C=CCn1c(=O)c2cnc(Nc3ccc(N4CCN(C)CC4)cc3)nc2n1-c1cccc(C(C)(C)O)n1 + Nc1ccc(C#CCN(C(=O)Cc2ncc(C(F)(F)F)cc2C(F)(F)F)c2ccc(F)cc2)nn1	< 6.00
C=CC(=O)N1CCN(c2nc(=O)n(-c3c(C)ccnc3C(C)C)c3nc(-c4c(O)cccc4F)c(F)cc23)C(C)C1 (stereo not given) + Nc1ccc(C#CCN(C(=O)Cc2ncc(C(F)(F)F)cc2C(F)(F)F)c2ccc(F)cc2)nn1	< 5.00

Inquiry: Param item = CCc1cc2c(N3CCc4c(cc(Cn5ccnc5)cc4-c4cn(C)nc4C(F)(F)F)C3=O)cc(C)nc2c(OC)n1 + Cc1cccc(N(C)C(=O)C2C(O)CCN2c2nc(C)cc(C(F)(F)F)c2C#N)c1 ; retrieve measured pIC50.
Reply text: < 5.00
